system: Escherichia coli TOP10; experiment: shrunken log2 fold change of peptide-encoding DNA abundance (4.5 h post-induction vs induction); higher = less antimicrobial activity (less host growth inhibition); conditions: time post-induction: 4.5 h; library: site-saturation at positions 5, 18, 19, 20
OBSERVABLE: shrunken log2 fold change

record_sequence=RRIRFRPPRLPRPRPRPDSCPRP observable="shrunken log2 fold change" measurement=-0.011
record_sequence=RRIRPRPPRLPRPRPRPKYNPRP observable="shrunken log2 fold change" measurement=-0.633
record_sequence=RRIRMRPPRLPRPRPRPYSCPRP observable="shrunken log2 fold change" measurement=-0.706
record_sequence=RRIRYRPPRLPRPRPRPCVSPRP observable="shrunken log2 fold change" measurement=-0.0134
record_sequence=RRIRARPPRLPRPRPRPIFSPRP observable="shrunken log2 fold change" measurement=-0.00994
record_sequence=RRIRIRPPRLPRPRPRPRPPPRP observable="shrunken log2 fold change" measurement=0.635
record_sequence=RRIRMRPPRLPRPRPRPICEPRP observable="shrunken log2 fold change" measurement=0.241
record_sequence=RRIRVRPPRLPRPRPRPMQHPRP observable="shrunken log2 fold change" measurement=0.0443
record_sequence=RRIRLRPPRLPRPRPRPRPGPRP observable="shrunken log2 fold change" measurement=0.687
record_sequence=RRIRWRPPRLPRPRPRPYNGPRP observable="shrunken log2 fold change" measurement=-0.668
record_sequence=RRIRPRPPRLPRPRPRPVMPPRP observable="shrunken log2 fold change" measurement=0.188
record_sequence=RRIRCRPPRLPRPRPRPHSWPRP observable="shrunken log2 fold change" measurement=-0.301
record_sequence=RRIRKRPPRLPRPRPRPSPQPRP observable="shrunken log2 fold change" measurement=0.219
record_sequence=RRIRGRPPRLPRPRPRPRRLPRP observable="shrunken log2 fold change" measurement=0.502
record_sequence=RRIRVRPPRLPRPRPRPTSCPRP observable="shrunken log2 fold change" measurement=0.961
record_sequence=RRIRWRPPRLPRPRPRPKYPPRP observable="shrunken log2 fold change" measurement=-0.582
record_sequence=RRIRDRPPRLPRPRPRPDTGPRP observable="shrunken log2 fold change" measurement=0.018
record_sequence=RRIRMRPPRLPRPRPRPFYYPRP observable="shrunken log2 fold change" measurement=-0.527
record_sequence=RRIRWRPPRLPRPRPRPWKNPRP observable="shrunken log2 fold change" measurement=0.0346
record_sequence=RRIRYRPPRLPRPRPRPHNGPRP observable="shrunken log2 fold change" measurement=-0.0705
record_sequence=RRIRQRPPRLPRPRPRPNVGPRP observable="shrunken log2 fold change" measurement=-0.0447
record_sequence=RRIRPRPPRLPRPRPRPYWCPRP observable="shrunken log2 fold change" measurement=-0.272
record_sequence=RRIRGRPPRLPRPRPRPHKRPRP observable="shrunken log2 fold change" measurement=0.34
record_sequence=RRIRHRPPRLPRPRPRPMHPPRP observable="shrunken log2 fold change" measurement=-0.193
record_sequence=RRIRARPPRLPRPRPRPEATPRP observable="shrunken log2 fold change" measurement=1.65
record_sequence=RRIRQRPPRLPRPRPRPREYPRP observable="shrunken log2 fold change" measurement=-0.0403
record_sequence=RRIRSRPPRLPRPRPRPNSLPRP observable="shrunken log2 fold change" measurement=-0.165
record_sequence=RRIRGRPPRLPRPRPRPYGVPRP observable="shrunken log2 fold change" measurement=-0.128
record_sequence=RRIRWRPPRLPRPRPRPEFHPRP observable="shrunken log2 fold change" measurement=0.227
record_sequence=RRIRSRPPRLPRPRPRPMSEPRP observable="shrunken log2 fold change" measurement=0.0489
record_sequence=RRIRWRPPRLPRPRPRPYSNPRP observable="shrunken log2 fold change" measurement=-0.2
record_sequence=RRIRDRPPRLPRPRPRPKSGPRP observable="shrunken log2 fold change" measurement=0.0754
record_sequence=RRIRRRPPRLPRPRPRPNVIPRP observable="shrunken log2 fold change" measurement=-0.265
record_sequence=RRIRYRPPRLPRPRPRPGDTPRP observable="shrunken log2 fold change" measurement=-0.276
record_sequence=RRIRWRPPRLPRPRPRPFWNPRP observable="shrunken log2 fold change" measurement=-0.175
record_sequence=RRIRWRPPRLPRPRPRPEPNPRP observable="shrunken log2 fold change" measurement=1.23
record_sequence=RRIRFRPPRLPRPRPRPQLCPRP observable="shrunken log2 fold change" measurement=-0.0465
record_sequence=RRIRSRPPRLPRPRPRPSHNPRP observable="shrunken log2 fold change" measurement=-0.784
record_sequence=RRIRCRPPRLPRPRPRPSGFPRP observable="shrunken log2 fold change" measurement=-0.218
record_sequence=RRIRLRPPRLPRPRPRPDHLPRP observable="shrunken log2 fold change" measurement=-0.0674
record_sequence=RRIRNRPPRLPRPRPRPGEKPRP observable="shrunken log2 fold change" measurement=-0.01
record_sequence=RRIRLRPPRLPRPRPRPVYMPRP observable="shrunken log2 fold change" measurement=-0.283
record_sequence=RRIRMRPPRLPRPRPRPQLVPRP observable="shrunken log2 fold change" measurement=0.00959
record_sequence=RRIRERPPRLPRPRPRPIIYPRP observable="shrunken log2 fold change" measurement=-0.412
record_sequence=RRIRKRPPRLPRPRPRPKSEPRP observable="shrunken log2 fold change" measurement=0.0409
record_sequence=RRIRERPPRLPRPRPRPAGSPRP observable="shrunken log2 fold change" measurement=-0.202
record_sequence=RRIRDRPPRLPRPRPRPWMKPRP observable="shrunken log2 fold change" measurement=-0.0188
record_sequence=RRIRHRPPRLPRPRPRPISFPRP observable="shrunken log2 fold change" measurement=-0.281
record_sequence=RRIRTRPPRLPRPRPRPWWYPRP observable="shrunken log2 fold change" measurement=-0.308
record_sequence=RRIRCRPPRLPRPRPRPYVSPRP observable="shrunken log2 fold change" measurement=-0.207
record_sequence=RRIRTRPPRLPRPRPRPPIGPRP observable="shrunken log2 fold change" measurement=0.0445
record_sequence=RRIRSRPPRLPRPRPRPEAIPRP observable="shrunken log2 fold change" measurement=0.748
record_sequence=RRIRMRPPRLPRPRPRPRSMPRP observable="shrunken log2 fold change" measurement=-0.00173
record_sequence=RRIRNRPPRLPRPRPRPMDWPRP observable="shrunken log2 fold change" measurement=-0.0484
record_sequence=RRIRWRPPRLPRPRPRPNWDPRP observable="shrunken log2 fold change" measurement=-0.0442
record_sequence=RRIRLRPPRLPRPRPRPFSYPRP observable="shrunken log2 fold change" measurement=-0.747
record_sequence=RRIRCRPPRLPRPRPRPHKPPRP observable="shrunken log2 fold change" measurement=0.0762
record_sequence=RRIRFRPPRLPRPRPRPCVKPRP observable="shrunken log2 fold change" measurement=-0.123
record_sequence=RRIRCRPPRLPRPRPRPPWRPRP observable="shrunken log2 fold change" measurement=0.751
record_sequence=RRIRHRPPRLPRPRPRPLHSPRP observable="shrunken log2 fold change" measurement=-0.151
record_sequence=RRIRQRPPRLPRPRPRPVKEPRP observable="shrunken log2 fold change" measurement=-0.0231
record_sequence=RRIRYRPPRLPRPRPRPPPLPRP observable="shrunken log2 fold change" measurement=0.616
record_sequence=RRIRPRPPRLPRPRPRPYCRPRP observable="shrunken log2 fold change" measurement=0.0122

* * *

system: Escherichia coli TOP10; test: shrunken log2 fold change of peptide-encoding DNA abundance (4.5 h post-induction vs induction); higher = less antimicrobial activity (less host growth inhibition); conditions: time post-induction: 4.5 h; library: site-saturation at positions 5, 18, 19, 20;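 further: peptides expressed intracellularly from a pBAD plasmid library in pooled LB shake-flask culture, induced with 0.3% L-arabinose, DNA abundance read by NGS, three biological replicates, DESeq2 with apeglm shrinkage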
Here the recorded shrunken log2 fold change is given for each entry.
OBSERVABLE: shrunken log2 fold change

record_sequence=RRIRYRPPRLPRPRPRPQDAPRP observable="shrunken log2 fold change" measurement=-0.215
record_sequence=RRIRLRPPRLPRPRPRPLLPPRP observable="shrunken log2 fold change" measurement=0.368
record_sequence=RRIRGRPPRLPRPRPRPDIFPRP observable="shrunken log2 fold change" measurement=0.837
record_sequence=RRIRDRPPRLPRPRPRPDYDPRP observable="shrunken log2 fold change" measurement=-0.0133
record_sequence=RRIRERPPRLPRPRPRPWTSPRP observable="shrunken log2 fold change" measurement=-0.028
record_sequence=RRIRTRPPRLPRPRPRPPWMPRP observable="shrunken log2 fold change" measurement=-0.00314
record_sequence=RRIRMRPPRLPRPRPRPIWFPRP observable="shrunken log2 fold change" measurement=0.1
record_sequence=RRIRYRPPRLPRPRPRPDVGPRP observable="shrunken log2 fold change" measurement=-0.273
record_sequence=RRIRFRPPRLPRPRPRPDPYPRP observable="shrunken log2 fold change" measurement=-0.437
record_sequence=RRIRYRPPRLPRPRPRPNAIPRP observable="shrunken log2 fold change" measurement=-0.0737
record_sequence=RRIRPRPPRLPRPRPRPKSMPRP observable="shrunken log2 fold change" measurement=-0.37
record_sequence=RRIRMRPPRLPRPRPRPEFMPRP observable="shrunken log2 fold change" measurement=0.656
record_sequence=RRIRWRPPRLPRPRPRPMMEPRP observable="shrunken log2 fold change" measurement=0.134
record_sequence=RRIRHRPPRLPRPRPRPMAIPRP observable="shrunken log2 fold change" measurement=0.0143
record_sequence=RRIRDRPPRLPRPRPRPGISPRP observable="shrunken log2 fold change" measurement=0.0115
record_sequence=RRIRDRPPRLPRPRPRPAMSPRP observable="shrunken log2 fold change" measurement=0.184
record_sequence=RRIRLRPPRLPRPRPRPNDDPRP observable="shrunken log2 fold change" measurement=-0.248
record_sequence=RRIRTRPPRLPRPRPRPWACPRP observable="shrunken log2 fold change" measurement=-0.151
record_sequence=RRIRCRPPRLPRPRPRPVIKPRP observable="shrunken log2 fold change" measurement=-0.0948
record_sequence=RRIRLRPPRLPRPRPRPQKQPRP observable="shrunken log2 fold change" measurement=0.17
record_sequence=RRIRLRPPRLPRPRPRPLGTPRP observable="shrunken log2 fold change" measurement=0.18
record_sequence=RRIRHRPPRLPRPRPRPFQMPRP observable="shrunken log2 fold change" measurement=-0.0675
record_sequence=RRIRMRPPRLPRPRPRPREWPRP observable="shrunken log2 fold change" measurement=-0.0018
record_sequence=RRIRKRPPRLPRPRPRPEFPPRP observable="shrunken log2 fold change" measurement=0.0804
record_sequence=RRIRWRPPRLPRPRPRPLWHPRP observable="shrunken log2 fold change" measurement=-0.0484
record_sequence=RRIRMRPPRLPRPRPRPGCCPRP observable="shrunken log2 fold change" measurement=1.36
record_sequence=RRIRIRPPRLPRPRPRPMAKPRP observable="shrunken log2 fold change" measurement=-0.00776
record_sequence=RRIRRRPPRLPRPRPRPNVKPRP observable="shrunken log2 fold change" measurement=0.0575
record_sequence=RRIRHRPPRLPRPRPRPYDWPRP observable="shrunken log2 fold change" measurement=-0.0123
record_sequence=RRIRRRPPRLPRPRPRPCKMPRP observable="shrunken log2 fold change" measurement=-0.0577
record_sequence=RRIRKRPPRLPRPRPRPSWEPRP observable="shrunken log2 fold change" measurement=0.153
record_sequence=RRIRRRPPRLPRPRPRPWYFPRP observable="shrunken log2 fold change" measurement=-0.204

Values compiled from the supplement of paper PMC9112550.
